# Tested on: AA1029
# assay_method_text: qHTS profiling for inhibitors of Plasmodium falciparum proliferation (AID 504749); also: nearly all actives have a fitted effect of over 60% in size
# recorded_conditions: P. falciparum in erythrocytes, SYBR Green DNA, 72 h; series mostly up to 28.7 µM
# Method: NIH National Institute of Allergy and Infectious Diseases [NIAID] NIH Chemical Genomics Center [NCGC] […] Because mature erythrocytes lack DNA, only Plasmodium-derived DNA is detected. NCGC Assay Protocol Summary: The SYBR Green viability assay was adapted from a method described previously (Plouffe et al., 2008). […] The following morning, fluorescence intensity at 485(14) nm excitation and 535(25) nm emission wavelengths was measured on an EnVision (Perkin Elmer) plate reader. […]
Records with an inconclusive call do not appear. The source made the active and inactive calls. Calls follow the shape of the dose curve; as a rule, active = well fitted inhibition curve with a large enough effect; inconclusive = small, poorly fitted or top-dose-only effect; inactive = flat fitted curve, though single readings scatter. Bridge positions count the residues as written; N and C are the ends. Square brackets hold non-standard residues; d marks the D form. Peptide text beside a SMILES is read from it. * marks the point of attachment. Octanoyl(6-Me) = CCC(C)CCCCC(=O)*; Dab = NCC[CH](N)C(=O)O
Would you mind answering with one of these outcomes? class 1 for active, class 0 for inactive

Tell me the assay call for CCC(C)n1ncn(-c2ccc(N3CCN(c4ccc(OCC5COC(Cn6cncn6)(c6ccc(Cl)cc6Cl)O5)cc4)CC3)cc2)c1=O (stereo not drawn) please.
class 0

Tell me the assay call for "CCN1/C(=C/C=C/C=C/c2sc3ccccc3[n+]2CC)Sc2ccccc21" please.
class 1

Tell me the assay call for NC1=NC(S)C2N=CN=C2N1 (stereo not drawn) please.
class 0

Tell me the assay call for CCC(=O)O[C@@H](OP(=O)(CCCCc1ccccc1)CC(=O)N1C[C@H](C2CCCCC2)C[C@H]1C(=O)O)C(C)C (stereo partly drawn) please.
class 0

Tell me the assay call for C=C[C@]1(C)C[C@@H](OC(=O)CSCCN(CC)CC)[C@]2(C)C(C)CC[C@]3(CCC(=O)[C@H]32)[C@@H](C)[C@@H]1O (stereo partly drawn) please.
class 1

Tell me the assay call for "C/C=C\c1ccc(OC)cc1" please.
class 0

Tell me the assay call for CC(C)(CO)C(O)C(=O)NCCCC(=O)O (stereo not drawn) please.
class 0

Tell me the assay call for "CC(C)CN(C[C@@H](O)[C@H](Cc1ccccc1)NC(=O)O[C@H]1CCOC1)S(=O)(=O)c1ccc(N)cc1" please.
class 0

Tell me the assay call for "CC1(C)S[C@@H]2[C@H](NC(=O)COc3ccccc3)C(=O)N2[C@H]1C(=O)O" please.
class 0

Tell me the assay call for Cc1cc(CC(C)CC(C)(C)C)n(O)c(=O)c1 (stereo not drawn) please.
class 1

Tell me the assay call for CCC(C)CCCCC(=O)NC(CCN)C(=O)NC(C(=O)NC(CCN)C(=O)NC1CCNC(=O)C(C(C)O)NC(=O)C(CCN)NC(=O)C(CCN)NC(=O)C(CC(C)C)NC(=O)C(Cc2ccccc2)NC(=O)C(CCN)NC1=O)C(C)O (stereo not drawn) ({Octanoyl(6-Me)}-[Dab]T[Dab][Dab][Dab]FL[Dab][Dab]T; lactam 4-C; configuration not given here) please.
class 0

Tell me the assay call for "CO/N=C(/C(=O)N[C@@H]1C(=O)N2C(C(=O)O)=CCS[C@H]12)c1csc(N)n1" please.
class 0

Tell me the assay call for CC1CCC(C(C)C)C(OC(=O)c2ccccc2O)C1 (stereo not drawn) please.
class 0
